Test system: HSC-3 (Oral Cavity Carcinoma)
method description: Bliss excess, mean over the matrix (fraction); higher = more synergy
metric: Bliss excess
Give the figure by itself; no unit, no explanation.

compound	data value
Cc1c2c(nn1C)CSCc1cc(n(C)n1)CSc1cc(c3ccccc3c1)OCCCc1c(C(=O)O)n(C)c3c-2c(Cl)ccc13 [AZD5991] + C[C@@H]1COCCN1C2=NC(=NC(=C2)C3(CC3)[S@](=N)(=O)C)C4=C5C=CNC5=NC=C4 [AZD6738] (first compound max 1 µM, 7x7, partner max 10 µM)	0.0094

Qu. Name the recorded Bliss excess for CC1(C)CCC(CN2CCN(c3ccc(C(=O)NS(=O)(=O)c4ccc(NCC5CCOCC5)c([N+](=O)[O-])c4)c(Oc4cnc5[nH]ccc5c4)c3)CC2)=C(c2ccc(Cl)cc2)C1 [Venetoclax] + C1CN(CCC1(C(=O)N[C@@H](CCO)C2=CC=C(C=C2)Cl)N)C3=NC=NC4=C3C=CN4 [Capivasertib] (first compound max 1 µM, 7x7, partner max 3 µM) .
Ans. -0.0501

---

Test system: NCI-H810 (Non-Small Cell Lung Carcinoma)
method description: combination Emax (second highest fraction inhibited in the dose matrix, 72 h); higher = more inhibition; extreme values may be limits of the assay
metric: combination Emax
Give the figure by itself; no unit, no explanation.

# example entries with known answers
compound	experimental system	combination Emax
Cc1c2c(nn1C)CSCc1cc(n(C)n1)CSc1cc(c3ccccc3c1)OCCCc1c(C(=O)O)n(C)c3c-2c(Cl)ccc13 [AZD5991] + CCN(CCO)CCCOc1ccc2c(Nc3cc(CC(=O)Nc4cccc(F)c4)[nH]n3)ncnc2c1 [AZD2811] (first compound max 1 µM, 7x7, partner max 1 µM)	NCI-H810 (Non-Small Cell Lung Carcinoma)	0.981
CN(CCO)CC[C@H](CSc1ccccc1)Nc1ccc(S(=O)(=O)NC(=O)c2ccc(N3CCC([C@@H](O)c4ccccc4-c4ccc(Cl)cc4)CC3)cc2)cc1S(=O)(=O)C(F)(F)F [AZD4320] + CS(=O)(=O)CCNCc1ccc(-c2ccc3ncnc(Nc4ccc(OCc5cccc(F)c5)c(Cl)c4)c3c2)o1 [Lapatinib] (first compound max 1 µM, 7x7, partner max 10 µM)	NCI-H810 (Non-Small Cell Lung Carcinoma)	0.518

With those in mind, consider the next compound.
Qu. Name the recorded combination Emax for CN(CCO)CC[C@H](CSc1ccccc1)Nc1ccc(S(=O)(=O)NC(=O)c2ccc(N3CCC([C@@H](O)c4ccccc4-c4ccc(Cl)cc4)CC3)cc2)cc1S(=O)(=O)C(F)(F)F [AZD4320] + C[C@@H](Nc1cc(F)cc(F)c1)c1cc(C(=O)N(C)C)cc2c(=O)cc(N3CCOCC3)oc12 [AZD8186] (first compound max 1 µM, 7x7, partner max 3 µM) .
Ans. 0.592

---

Tested on: RMG-I (Ovarian Carcinoma)
method description: combination Emax (second highest fraction inhibited in the dose matrix, 72 h); higher = more inhibition; extreme values may be limits of the assay
metric: combination Emax
Give the figure by itself; no unit, no explanation.

molecule	experimental system	combination Emax
CC1(C)CCC(CN2CCN(c3ccc(C(=O)NS(=O)(=O)c4ccc(NCC5CCOCC5)c([N+](=O)[O-])c4)c(Oc4cnc5[nH]ccc5c4)c3)CC2)=C(c2ccc(Cl)cc2)C1 [Venetoclax] + C[C@@H](Nc1cc(F)cc(F)c1)c1cc(C(=O)N(C)C)cc2c(=O)cc(N3CCOCC3)oc12 [AZD8186] (first compound max 1 µM, 7x7, partner max 3 µM)	RMG-I (Ovarian Carcinoma)	0.277
N#Cc1cnc(Nc2cc(NC[C@H]3CNCCO3)c(C(F)(F)F)cn2)cn1 [SRA737] + O=c1[nH]cc(F)c(=O)[nH]1 [5-Fluorouracil] (first compound max 10 µM, 7x7, partner max 20 µM)	RMG-I (Ovarian Carcinoma)	0.106
Cc1c2c(nn1C)CSCc1cc(n(C)n1)CSc1cc(c3ccccc3c1)OCCCc1c(C(=O)O)n(C)c3c-2c(Cl)ccc13 [AZD5991] + CC1(C)CCC(CN2CCN(c3ccc(C(=O)NS(=O)(=O)c4ccc(NCC5CCOCC5)c([N+](=O)[O-])c4)c(Oc4cnc5[nH]ccc5c4)c3)CC2)=C(c2ccc(Cl)cc2)C1 [Venetoclax] (first compound max 1 µM, 7x7, partner max 1 µM)	RMG-I (Ovarian Carcinoma)	0.421

Qu. Recall the recorded combination Emax for COc1nnc2ccc(N3CCC(c4ccc(OCCN5CCN(C)C(=O)[C@H]5C)cc4)CC3)nn12 [AZD5153] + CC1(C)CCC(CN2CCN(c3ccc(C(=O)NS(=O)(=O)c4ccc(NCC5CCOCC5)c([N+](=O)[O-])c4)c(Oc4cnc5[nH]ccc5c4)c3)CC2)=C(c2ccc(Cl)cc2)C1 [Venetoclax] (first compound max 1 µM, 7x7, partner max 1 µM) with RMG-I (Ovarian Carcinoma) and state it.
Ans. 0.599

Qu. What about Cc1cc2ncnn2cc1Nc1ncc2c(n1)n(C1CCOCC1)c(=O)n2C [AZD7648] + O=C(c1cc(Cc2n[nH]c(=O)c3ccccc23)ccc1F)N1CCN(C(=O)C2CC2)CC1 [Olaparib] (first compound max 10 µM, 7x7, partner max 10 µM) ?
Ans. 0.192

Qu. What about C[C@@H](Nc1cc(F)cc(F)c1)c1cc(C(=O)N(C)C)cc2c(=O)cc(N3CCOCC3)oc12 [AZD8186] + C1CN(CCC1(C(=O)N[C@@H](CCO)C2=CC=C(C=C2)Cl)N)C3=NC=NC4=C3C=CN4 [AZD5363] (first compound max 10 µM, 7x7, partner max 10 µM) ?
Ans. 0.401

Qu. What about CCc1c2c(nc3ccc(O)cc13)-c1cc3c(c(=O)n1C2)COC(=O)[C@]3(O)CC [SN-38] + CN(C)CCCOc1ccc(-c2ccc3ncc4c(c3c2)n(C2CCOCC2)c(=O)n4C)cn1 [AZD0156] (first compound max 0.3 µM, 7x7, partner max 1 µM) ?
Ans. 0.446

---

Tested on: RMG-I (Ovarian Carcinoma)
method description: Bliss excess, mean over the matrix (fraction); higher = more synergy
metric: Bliss excess
Give the figure by itself; no unit, no explanation.

molecule	Bliss excess
CS(=O)(=O)CCNCc1ccc(-c2ccc3ncnc(Nc4ccc(OCc5cccc(F)c5)c(Cl)c4)c3c2)o1 [Lapatinib] + C[C@@H](Oc1cc(-c2cnn(C3CCNCC3)c2)cnc1N)c1c(Cl)ccc(F)c1Cl [Crizotinib] (first compound max 10 µM, 7x7, partner max 10 µM)	-0.0367

With those in mind, consider the next molecule.
Qu. Name the recorded Bliss excess for Cc1c2c(nn1C)CSCc1cc(n(C)n1)CSc1cc(c3ccccc3c1)OCCCc1c(C(=O)O)n(C)c3c-2c(Cl)ccc13 [AZD5991] + CC1(C)CCC(CN2CCN(c3ccc(C(=O)NS(=O)(=O)c4ccc(NCC5CCOCC5)c([N+](=O)[O-])c4)c(Oc4cnc5[nH]ccc5c4)c3)CC2)=C(c2ccc(Cl)cc2)C1 [Venetoclax] (first compound max 1 µM, 7x7, partner max 1 µM) .
Ans. -0.0289

---

System: PC-14 (Lung Adenocarcinoma)
method description: combination Emax (second highest fraction inhibited in the dose matrix, 72 h); higher = more inhibition; extreme values may be limits of the assay
Reported combination Emax values follow for various molecules
Give the figure by itself; no unit, no explanation.

# example entries with known answers
molecule	combination Emax
N#Cc1cnc(Nc2cc(NC[C@H]3CNCCO3)c(C(F)(F)F)cn2)cn1 [SRA737] + C=CCn1c(=O)c2cnc(Nc3ccc(N4CCN(C)CC4)cc3)nc2n1-c1cccc(C(C)(C)O)n1 [AZD1775] (first compound max 10 µM, partner max 1 µM)	0.882
Cc1c2c(nn1C)CSCc1cc(n(C)n1)CSc1cc(c3ccccc3c1)OCCCc1c(C(=O)O)n(C)c3c-2c(Cl)ccc13 [AZD5991] + Nc1ccn([C@@H]2O[C@H](CO)[C@@H](O)C2(F)F)c(=O)n1 [Gemcitabine] (first compound max 1 µM, 7x7, partner max 0.3 µM)	0.692

With those in mind, consider the next molecule.
Qu. Name the recorded combination Emax for CC(=O)c1c(C)c2cnc(Nc3ccc(N4CCNCC4)cn3)nc2n(C2CCCC2)c1=O [Palbociclib] + CN(CC[C@H](CSC1=CC=CC=C1)NC2=C(C=C(C=C2)S(=O)(=O)NC(=O)C3=CC=C(C=C3)N4CCC(CC4)[C@H](C5=CC=CC=C5C6=CC=C(C=C6)Cl)O)S(=O)(=O)C(F)(F)F)CCO [AZD4320] (first compound max 10 µM, 7x7, partner max 1 µM) .
Ans. 0.311

---

System: CML-T1 (Chronic Myelogenous Leukemia)
method description: combination Emax (second highest fraction inhibited in the dose matrix, 72 h); higher = more inhibition; extreme values may be limits of the assay
metric: combination Emax
Give the figure by itself; no unit, no explanation.

compound	experimental system	combination Emax
COc1nnc2ccc(N3CCC(c4ccc(OCCN5CCN(C)C(=O)[C@H]5C)cc4)CC3)nn12 [AZD5153] + Cc1c2c(nn1C)CSCc1cc(n(C)n1)CSc1cc(c3ccccc3c1)OCCCc1c(C(=O)O)n(C)c3c-2c(Cl)ccc13 [AZD5991] (first compound max 1 µM, 7x7, partner max 1 µM)	CML-T1 (Chronic Myelogenous Leukemia)	0.523

Qu. Name the recorded combination Emax for Cc1cc2ncnn2cc1Nc1ncc2c(n1)n(C1CCOCC1)c(=O)n2C [AZD7648] + CN(C)CCCOc1ccc(-c2ccc3ncc4c(c3c2)n(C2CCOCC2)c(=O)n4C)cn1 [AZD0156] (first compound max 10 µM, 7x7, partner max 1 µM) .
Ans. 0.388
